- Tested on: frog Estrogen Receptor (ER2), gene 100174814
- assay.comment: ATG_frER2_XSP2: Attagene TRANS-FACTORIAL Multi-Species (XSP2) HepG2 Assay for frog Estrogen Receptor (ER2) (AID 2283828)
Results filed as inconclusive are left out. Calls of active or inactive are those of the source. The calls were made as follows: active = hit-call score of the fitted dose curve at least 0.9, where 1 is the maximum; inconclusive = response in the unintended direction; inactive = score below 0.9.
measurement.type: AC50

// below: answered compounds
| compound | AC50 |
| --- | --- |
| CCCCOC(=O)c1ccccc1C(=O)OCCCC | 80.3 µM (active) |
| CC(C)(C)c1ccc(CSc2cnn(C(C)(C)C)c(=O)c2Cl)cc1 | inactive |
| C=CC1(C)OC(=O)N(c2cc(Cl)cc(Cl)c2)C1=O (stereo unspecified) | inactive |
| OC(c1ccc(Cl)cc1)(c1cncnc1)c1ccccc1Cl (stereo unspecified) | 6.28 µM (active) |
| COc1ccc(C(c2ccc(OC)cc2)C(Cl)(Cl)Cl)cc1 | 99.5 µM (active) |

Please fill in: AC50 reported for CCCC1COC(Cn2cncn2)(c2ccc(Cl)cc2Cl)O1 (stereo unspecified) = 32.5 µM (active)
